Test system: AM2.2 cells FAP-GPR32, fluorogen binding, flow cytometry MCF
measurement_notes: fluorogen binding to FAP-tagged GPR32, dose response, counter-screen for beta2AR agonist internalization project, AM2.2 cells, flow cytometry, powder set 4 (AID 651875)
property_measured: EC50

{"compound": "COc1ccccc1N1CCN(C(=O)CN(C)S(=O)(=O)c2ccc(C)cc2)CC1", "result": "0.974 µM"}
{"compound": "O=C(C1CCC(=O)N1S(=O)(=O)c1ccccc1)N1CCN(c2ccccn2)CC1 (stereo not given)", "result": "0.0496 µM"}
{"compound": "CC(=O)Nc1ccc(S(=O)(=O)N2CCCCC2c2cccnc2)cc1 (stereo not given)", "result": "0.0156 µM"}
{"compound": "Cc1ccc(S(=O)(=O)N(C)CC(=O)N2CCN(c3ccccn3)CC2)cc1", "result": "0.0037 µM"}
{"compound": "O=C(CN(Cc1ccccc1)S(=O)(=O)c1ccc(Cl)cc1)N1CCN(c2ccccn2)CC1", "result": "0.316 µM"}

Each recorded value in this set is attributed to PubChem BioAssay AID651875.
